- assayedSystem: recombinant cynomolgus monkey CD3ε/δ heterodimer (cynomolgus monkey) (UniProt Q95LI5)
- Sequence (Q95LI5 22-117, stated change not applied, chain 1 of 2): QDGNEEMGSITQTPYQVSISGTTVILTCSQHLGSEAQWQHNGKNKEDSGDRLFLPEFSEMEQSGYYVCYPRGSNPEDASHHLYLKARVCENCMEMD
- Sequence (Q95LI8 22-105, stated change not applied, chain 2 of 2, further chain): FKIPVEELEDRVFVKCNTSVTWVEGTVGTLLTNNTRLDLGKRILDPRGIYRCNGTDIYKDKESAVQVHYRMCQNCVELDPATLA
- experimentDescription: ELISA, coated CD3ε/δ
Reported Absorbance (450 nm) values for a set of binders
The answer should be a number; do not append a unit.

{"binder": "A01 (antibody, human IgG1, lambda, L234A L235A, V domains shown) VH: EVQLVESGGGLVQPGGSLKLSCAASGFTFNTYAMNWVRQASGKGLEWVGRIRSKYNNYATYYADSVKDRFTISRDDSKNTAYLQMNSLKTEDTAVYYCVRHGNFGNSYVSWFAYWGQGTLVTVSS VL: QAVVTQEPSLTVSPGGTVTLTCRSSTGAVTTSNYANWFQQKPGQAPRTLIYGTNKRAPWTPARFSGSLLGGKAALTLSGAQPEDEAEYYCALWYSNLWVFGGGTKLTVLG", "Absorbance (450 nm)": 0.098}
{"binder": "D01 (antibody, human IgG1, lambda, L234A L235A, V domains shown) VH: EVQLVESGGGLVQPGGSLKLSCAASGFTFNTYAMNWVRQASGKGLEWVGRIRSKYNNYATYYADSVKDRFTISRDDSQSTLYLQMNSLKTEDTAVYYCVRHGNFGNSYVSWFAYWGQGTLVTVSS VL: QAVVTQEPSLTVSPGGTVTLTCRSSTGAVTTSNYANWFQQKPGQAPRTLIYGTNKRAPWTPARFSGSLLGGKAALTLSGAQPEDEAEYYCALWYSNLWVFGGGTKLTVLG", "Absorbance (450 nm)": 0.099}

# context switch: different binder, same Absorbance (450 nm)
For D05 (antibody, human IgG1, lambda, L234A L235A, V domains shown) VH: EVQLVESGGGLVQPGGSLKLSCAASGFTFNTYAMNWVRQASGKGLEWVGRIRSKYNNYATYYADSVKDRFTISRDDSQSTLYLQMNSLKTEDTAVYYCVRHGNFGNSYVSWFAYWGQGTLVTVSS VL: QAVVTQEPSLTVSPGGTVTLTCRSSTGAVTTSNYANWFQQKPGQAPRGLIYGTNKRAPWTPARFSGSLLGGKAALTLSGAQPEDEAEYYCALWYSNLWVFGGGTKLTVLG , what is its reported Absorbance (450 nm)? 0.101

Where do the numbers come from? From patent US20200317779A1.
